Values compiled from paper PMC3983190.

# protocol_details: physchem
# assay_setup: kinetic from dmso stock
measurement_type: solubility

Requested read-out: solubility. Entry: CCC[C@H](NC(=O)/C(C#N)=C/c1cccc(Br)n1)c1ccccc1 [WP1130, reference compound] ~3.2 µM
